System: Jurkat human leukemia T cells
Assay: Cell cycle stage in Jurkat cells (propidium iodide flow cytometry)
Format: cell-based
Conditions: Jurkat, 24 h, 100 μg/ml
Description: Cell cycle stage was determined using a […]™ PLUS DNA commercial kit (Becton Dickinson). […] Propidium iodide was added to the cell nuclei and their fluorescence was analyzed in a flow cytometer equipped with electronic doublet discrimination capability (FACSCalibur, Becton Dickinson, San Jose, Calif.). Accumulation of cells in G0/G1, early S (SE), mid S (SM), late S (SL) or G2/M phases of the cell cycle was analyzed using MODFIT LT software (Verity Software House Inc., Topsham, Mass.). […]

| sequence-record | system | Arrest (cell cycle) |
| --- | --- | --- |
| GGGGGGGTGGGGGGGTGGGGGGGTGGG (unmodified DNA) [SEQ ID NO:4] | Jurkat human leukemia T cells | None |
| GGGTGGGTGGGTGGGTGGGTGGGTGGG [SEQ ID NO:2] | Jurkat human leukemia T cells | None |
| AAAGAGGGGCATGACCCGGTGCGGGGGTTCTTGCACTCGGCATAG (unmodified DNA) [BCG A-1, reference compound] | Jurkat human leukemia T cells | Mid SM |
| GTGTGTGTGTGTGTGTGTGTGTGTGTG (DNA, backbone not given here; further chemistry not fully specified) [SEQ ID NO:1 phosphorothioate] | Jurkat human leukemia T cells | None |
| TTAGGG (phosphodiester backbone) [SEQ ID NO:49, reference compound] | Jurkat human leukemia T cells | Mid SM |
| GGGGGTGGGGGTGGGGGTGGGGGTGGG (unmodified DNA) [SEQ ID NO:3] | Jurkat human leukemia T cells | None |
| GTGTGTGTGTGTGTGTGT (unmodified DNA) [SEQ ID NO:18] | Jurkat human leukemia T cells | Mid SM |
| AACCACAAGCCCAAC (DNA, backbone not given here) [SEQ ID NO:67] | Jurkat human leukemia T cells | None |
